# System: Vero E6 infected with SARS-CoV-2
# procedure-details: SARS-CoV-2 infection rate relative to infected DMSO; higher = more infection, active = 60 or less
# setup-conditions: 24 h
property-name: SARS-CoV-2 infection rate (%)
Give your result in % as a bare value.

Below, each entry is followed by its recorded SARS-CoV-2 infection rate result.
compound	system	property-name	measured-number
CC1(C)Oc2ccc(C#N)cc2[C@@H](N2CCCC2=O)[C@@H]1O [levcromakalim] (10 µM)	Vero E6 infected with SARS-CoV-2	SARS-CoV-2 infection rate	97
Nc1nonc1/C(=N/O)Nc1ccc(F)c(Cl)c1 (10 µM)	Vero E6 infected with SARS-CoV-2	SARS-CoV-2 infection rate	112
Nc1ccc(C(=O)O)cc1 [potassium-p-aminobenzoate] (10 µM)	Vero E6 infected with SARS-CoV-2	SARS-CoV-2 infection rate	108
CCN(CC)CC1CCCCN1CC(=O)N1c2ccccc2C(=O)Nc2cccnc21 (configuration not stated) [otenzepad] (10 µM)	Vero E6 infected with SARS-CoV-2	SARS-CoV-2 infection rate	94.5
C=CCc1cccc(/C=N/NC(=O)CN2CCN(Cc3ccccc3)CC2)c1O (0.833333 µM)	Vero E6 infected with SARS-CoV-2	SARS-CoV-2 infection rate	100

Exercise: I am curious: what SARS-CoV-2 infection rate value has been reported for Cc1ccc(Cl)c(OCC(O)CNC(C)(C)C)c1 (configuration not stated) [bupranolol] (10 µM) ?
Key: 111

Exercise: Report SARS-CoV-2 infection rate for Cc1nnc(C(=O)NC(C)(C)c2nc(C(=O)NCc3ccc(F)cc3)c(O)c(=O)n2C)o1 [raltegravir] (10 µM) please.
Key: 110

Exercise: What value of SARS-CoV-2 infection rate has been recorded for this entry: CN[C@@H](C)C(=O)N[C@H]1CCCC[C@H]2CC[C@@H](C(=O)N[C@@H](c3ccccc3)c3cn(CCCCc4ccc(CCCCn5cc([C@@H](NC(=O)[C@@H]6CC[C@@H]7CCCC[C@H](NC(=O)[C@H](C)NC)C(=O)N76)c6ccccc6)nn5)cc4)nn3)N2C1=O (10 µM)
Key: 98

Exercise: Which SARS-CoV-2 infection rate value is on record for c1cc(-c2sc(-c3ccncc3)c(-c3ccncc3)c2-c2ccncc2)ccn1 (10 µM) ?
Key: 93

Exercise: Can you share its SARS-CoV-2 infection rate? I mean this compound: Cc1ccc(S(=O)(=O)NCl)cc1 [chloramine-T] (10 µM)
Key: 104

Exercise: Sample O=C1C(O)=C(O)C(=O)C(O)=C1O [tetroquinone] (10 µM) — what was its SARS-CoV-2 infection rate?
Key: 106

Exercise: Report SARS-CoV-2 infection rate for Cn1c(=O)[nH]c2ncn(C)c2c1=O [paraxanthine] (10 µM) please.
Key: 110

Exercise: Please look up its SARS-CoV-2 infection rate: CN(C)CCCN1c2ccccc2CCc2ccccc21 [imipramine] (10 µM)
Key: 92.5

Exercise: SARS-CoV-2 infection rate for N=C(N)NCCC[C@@H](N)C(=O)N[C@@H](CCCNC(=N)N)C(=O)N1CCC[C@H]1C(=O)N1C[C@H](O)C[C@H]1C(=O)NCC(=O)N[C@@H](Cc1cccs1)C(=O)N[C@@H](CO)C(=O)N1Cc2ccccc2C[C@@H]1C(=O)N1[C@H](C(=O)N[C@@H](CCCNC(=N)N)C(=O)O)C[C@@H]2CCCC[C@@H]21 [icatibant-acetate] (10 µM) ?
Key: 102

Exercise: May I ask what SARS-CoV-2 infection rate has been recorded for COc1ccc(-c2ccc3c(N4CCOC[C@@H]4C)nc(N4CCOC[C@@H]4C)nc3n2)cc1CO (0.833333 µM) ?
Key: 105

Exercise: Value lookup for SARS-CoV-2 infection rate; key = CCCN(CCC)[C@H]1CCc2cccc(O)c2C1 [8-hydroxy-DPAT] (10 µM)
Key: 98.5

Exercise: Please report the recorded SARS-CoV-2 infection rate for COCCOc1ccc(N2CCN(CCn3ncc4c3nc(N)n3nc(-c5ccco5)nc43)CC2)cc1 [preladenant] (10 µM) .
Key: 111

Source listed as the supplement of paper PMC13380429.
